Values compiled from paper PMC7070443.

experimental-endpoint: melting point

Below are worked cases with known answers.
- compound: "COc1cc(/C=N/NC(=O)c2cnn(CC(O)c3ccccc3)c2N)ccc1OC(F)F (stereo not drawn)"
  melting point: "119 to 121 °C"
- compound: "NNC(=O)c1cnn(CC(O)c2ccccc2)c1N (stereo not drawn)"
  melting point: "183 to 184 °C"
- compound: "COc1ccc(/C=N/NC(=O)c2cnn3c2NC(c2ccccc2)C3)cc1OC1CCCCC1 (stereo not drawn)"
  melting point: "119 to 120 °C"
- compound: "COc1cccc(/C=N/NC(=O)c2cnn(CC(O)c3ccccc3)c2N)c1OCc1ccccc1 (stereo not drawn)"
  melting point: "198 to 200 °C"
- compound: "Nc1c(C(=O)N/N=C/c2ccc(OC(F)F)c(Oc3ccccc3)c2)cnn1CC(O)c1ccccc1 (stereo not drawn)"
  melting point: "184 to 186 °C"

Please give melting point for each item listed below.
1. COc1cccc(/C=N/NC(=O)c2cnn3c2NC(c2ccccc2)C3)c1OCc1ccccc1 (stereo not drawn)
2. COc1ccc(/C=N/NC(=O)c2cnn3c2N(C(C)=O)C(c2ccccc2)C3)cc1OC1CCCC1 (stereo not drawn)
3. COc1cccc(/C=N/NC(=O)c2cnn(CC(O)c3ccccc3)c2N)c1OC1CCCC1 (stereo not drawn)

Reply |
1. 200 to 202 °C
2. 140 to 141 °C
3. 180 to 181 °C

Input COc1cccc(/C=N/NC(=O)c2cnn(CC(O)c3ccccc3)c2N)c1Oc1ccccc1 (stereo not drawn) . Output melting point: 207 to 209 °C

----------
test system: human platelets; experiment: ROS production inhibition in thrombin-stimulated washed platelets (DCFH-DA, flow cytometry); type: cell-based; details: Homo sapiens, Platelet, washed human platelets, 0.1 U/mL thrombin, DCFH-DA; mean +/- SD, at least six experiments in duplicate
Answer each item with its documented pIC50.
Give bare numbers, as −log10 of the molar value.

Below are worked cases with known answers.
- compound: "COc1ccc(/C=N/NC(=O)c2cnn3c2NC(c2ccccc2)C3)cc1OC1CCCC1 (centres unmarked) [5d]"
  reading: 4.15
- compound: "COc1ccc(/C=N/NC(=O)c2cnn3c2NC(c2ccccc2)C3)cc1OC1CCCCC1 (centres unmarked) [5f]"
  reading: 4.22
- compound: "Nc1c(C(=O)N/N=C/c2ccc(OC(F)F)c(OC3CCCC3)c2)cnn1CC(O)c1ccccc1 (centres unmarked) [4e]"
  reading: 4.48

Please give pIC50 for each item listed below.
1. CCC(C)Oc1cc(/C=N/NC(=O)c2cnn3c2NC(c2ccccc2)C3)ccc1OC (centres unmarked) [5c]
2. COc1cccc(/C=N/NC(=O)c2cnn3c2NC(c2ccccc2)C3)c1OC1CCCC1 (centres unmarked) [5b]
3. COc1cccc(/C=N/NC(=O)c2cnn(CC(O)c3ccccc3)c2N)c1OC1CCCC1 (centres unmarked) [4b]
4. CCC(C)Oc1cc(/C=N/NC(=O)c2cnn(CC(O)c3ccccc3)c2N)ccc1OC (centres unmarked) [4c]
5. COc1ccc(/C=N/NC(=O)c2cnn(CC(O)c3ccccc3)c2N)cc1OC1CCCC1 (centres unmarked) [4d]
6. O=C(N/N=C/c1ccc(OC(F)F)c(OC2CCCC2)c1)c1cnn2c1NC(c1ccccc1)C2 (centres unmarked) [5e]
7. COc1ccc(/C=N/NC(=O)c2cnn3c2NC(c2ccccc2)C3)cc1OC (centres unmarked) [5a]

Reply |
[4.15, 4.18, 4.69, 4.78, 4.40, 4.10, 4.43]

Input O=C(N/N=C/c1ccc2c(c1)OCO2)c1cnn2c1NC(c1ccccc1)C2 (centres unmarked) [5g] . Output pIC50: 4.11
